assay: soluble on expression in E. coli; label from the status in PepcDB or PDB records
Outcome measure: soluble on expression in E. coli

Below are worked cases with known answers.
Record sequence: MADQKEASEAAKNREIKISSSDDEIFLVPRNVIRLSNTLNTLLVDLGLDDDEGTNAEPIPVQNVTASILKKVINWCTKHQSDPIPTEDSEKKTDGSIQDWDKKFLDIDQGTLFELILAANYLDIKGLLDVACQSVANMIKGKSPDEIRRAFNIKDDFTAEEREQIRKENAWCDD
soluble on expression in E. coli: soluble
//
Record sequence: MAHHHHHHMGRKKRKLNIDLKPFCYYCDREFDDEKILIQHQKAKHFKCLHCNRKLDMANGLVVHMMQVHKTNLKSVPNALPKRNDPELVIRGMNGVPTDIIEENLIKLKQKLGDKNIKRQQRVNWAQVTMAPTMEQFLKQAQMGNFSFPGFNSPVLPTNNNILTNTLDINNKSTLPNIPLYIPNTTSNINNINNINNLLQQPIGNNIIYPPKNSTLLNMPIPPINKNNINNHVVTNPNTFTPSNIPPNIAHKYSANINLLPTNINQHNPMYMPPGLYPPPIPPLNHPSIPPTHIPSSTYPTKMTPIQQKRPSTKWDVPEPSEGDPSILKHNKEDSTENKNEEPHKVSQDDDLKQNEQKDNQEKNHTQNCE
soluble on expression in E. coli: not soluble
//
Record sequence: MGSDKIHHHHHHMVVDGPRDPRMNMAIDEAILRVGAAPTLRIYMWLPGGLTLGRRQSVEDVNLAEAEKRGYVLVRRPTGGAALLHPWEREITYSLVLDSRHPYYSLDVAESAATIAGGVALALEELGIATRVGGYTPPPGVIGGLCYVRPGSSDVVVAGRKVSGSAQRRIGGRLLQHGTLLLRFDPEEWLSIIPVKGAGPSDLASRIAGIEDLAGRSYSFSEVADALVKGFSKALGLEPEPSGLEGREVEEALRLYRKKYSSPRWNLEGDEP
soluble on expression in E. coli: not soluble
//
Record sequence: MKVEGRCHCGAIAYEAEVEPGTITVCHCADCQMQSGSVFRANISAPADTFVLLQGTPKEYLKIAASGARRMHAFCGNCGGPIYSCAAENPQSYSLRVGALEQRHALGRPLRQIWARRRFSWLSSLGDVEEFDGQP
soluble on expression in E. coli: not soluble
//
Record sequence: MDRPLLIFSGQSNRPLAQAIAEALGLPLGKSTTLRFANDNLFVRYEESLREGDVFIVQSFVPPVQDHLMELLMMVDAAKGASAARVTAVIPYFSYARSDKKDAPRISITARLIADLLQTAGADRVLTMTLHSPQVHGFFKIPVDHLSAEPVIANYFATRVDLENAVVVAPDAGDLKRASALARRLGLPLAFIDKERVSDTEVRVRMLVGEVEGKTALIVDDEISTAGSLVEAVEALMQAGAKEVYAAATHGVYVGPALDRIAKSPVKEVAATDTCPPKEGPKLRTLTVAPLFAEAIWRIHRGESVSSLFT
soluble on expression in E. coli: soluble

// recorded soluble on expression in E. coli for MDEFGSLLGDSPRSSVNNWEKGVSIPKRDKLEKIAILGNMLPDQILYGRADEYLYDLIDSSFNVKFSDNILYEIFESVPPEKRSYDDLMWLAVAKYFIDNGTYGKVVGKFNYISMLGIPNLYTGSYQNEFIEQREDYKQQEVKYYVYADPEKNILHIMPFVPNEKNIELLYEFPELLEQQADHEVFTANFEQIGLTLKGSTIVYYGIDKQKLEAKTQAYKYDEAVDLYRIAQLPETLSMFDDEIQKQISFLKSK : not soluble

// recorded soluble on expression in E. coli for MSLATEQIQHIAIVGCVHGKYREMYRQLSEYEKSTGKEISFVICTGDMQTLRYEADLVYLKVPPKYKQMGDFHLYYEGKEKAPYLTLFIGGNHESSNVLLHLYNGGFVCFNMYYLGVCSCININGLRIVGVSGIYKSFDEKKPYTYPPSPNDVVSLFHTRNYVIQMLSNLSQSSQIDISLSHDWPQGIVMKGNYKQLYRFQPGFKKDGASLGSPINKVILNTLKPKYWISGHMHCEYHAEEGPTHFIALGKIGYKNAISYLDLPLKQKTDLEYDKDWVCNLIMTWPAFSNKAQFPDLSYSISELLSKRTKELDKKIIELWEKYIGLKIIYDSEGHHHHHH : not soluble

// recorded soluble on expression in E. coli for MGCVSSTSRSTGYYSGYESHEEPRAASRPTNSDDRGYETDSEPSSGNLIPNARSVYSESVLWHGTSMQSKIDLRSKGFDAGRKTGGATAGGNANMFMNLSREAQSETRRHHYLSSSQKEAKDFAMFADTSNPTLVRTIGVRNNLSLITDPRTGGTALMTDQSIPRKFVLGSKSSAPGENAKVFRDEMRAAGHNVSTKQAGELLREVQSDS : not soluble

// recorded soluble on expression in E. coli for MKNREIYAEMRCIPPVVLRADGRNFKNTLSGLGFEKPYDTTFARAMADTAELFIKKSGLSPYFAYTFSDEISFLFTDLPFDGRVEKIDSVVASFLGSALTIKLRLEAPIAFDSRLVALQKEEVSEYFHWRQLEAWRNFVASWGYYSLRNEGMGKDEAGKFLKGKKEWEIHEMLFERGINLAALPAWQRRGIIISKEECEISGFNPVYGKEVKSMRRRITQNWEIPKFKSEEGITFLEKLINRNMAGDPLEHHHHHH : not soluble

// recorded soluble on expression in E. coli for MSLENKENLVVIDLAIAEDSIQKKNIVYDKNGQNHFDVISAFIKSIRGSDPDATLYWLANMVEAGEDPNFIFRRLLISACEDIGLADPNAIVVVQSCCDAFDRVGFPEGLFFLSQASLYLAISPKSNSTKSIFKAMEAIKATNVSLVPNHLKNNASNYLNPHNYQGKWLQQEYLPTDLQGIKFWKPKDSGWEKNKYEDLPKKQKSEGHHHHHH : soluble

// recorded soluble on expression in E. coli for MSIEIKTNSVEPIRHTYGHIARRFGDKPATRYQEASYDIEAKTNFHYRPQWDSEHTLNDPTRTAIRMEDWCAVSDPRQFYYGAYVGNRAKMQESAETSFGFCEKRNLLTRLSEETQKQLLRLLVPLRHVELGANMNNAKIAGDATATTVSQMHIYTGMDRLGIGQYLSRIALMIDGSTGAALDESKAYWMDDEMWQPMRKLVEDTLVVDDWFELTLVQNILIDGMMYPLVYDKMDQWFESQGAEDVSMLTEFMRDWYKESLRWTNAMMKAVAGESETNRELLQKWIDHWEPQAYEALKPLAEASVGIDGLNEARAELSARLKKFELQSRGVSA : soluble

###

assay: soluble on expression in E. coli; label from the status in PepcDB or PDB records

Record sequence: MGSDKIHHHHHHMQFSPEQDNALKAVSAWLKEGRSPLFRLFGYAGTGKTTLARYFAETVDGSVQFTAFTGKAAQVLRSKGASNACTIHSLIYCPRGEEEVSDEVTGKKSIAPTFALNRRSAAAQAKLIIVDECSMVDEQLARDLMSFRTPILVLGDPGQLPPISGGGFFSNGVPDFLLSEIHRQARDNPIVRLAMDVREGRDIPYGNYGAARVVTRKEVHQQLVLDADQLLVGINRTRYLYNKRLRVLKGFTAAYPQAGDKLVCLRNDPAKGLLNGSLWKVMTSQKETVKPGVNLLVKPEESERGVVKIKLLKALFENPDSDISWQLKKRYDDFDYGYALTVHKAQGSQWNNVVLFDESFAFRDMSARWLYTGITRAAERLTIVR
soluble on expression in E. coli: not soluble
--
Record sequence: MGSDKIHHHHHHMIDEIKSGKYKHGDKLPTEKELMERFNASRETVRKALERLVVKNLVIRKPGLGTFVNIEKKNKVVGILVQQITSYIFPYIALGAEEVLFANGYKMLLGNASEDPHKERQIINEWLEVGVDGLIIDPVYSATKRSNRDLIEDMAKKGTKVVLVHTNWDIEGVGSVVLDDWYGGEKAAEIFYQYGHRNVAVLYKTIHLPSVVRAQAFLKRGRELGFEKVHEKSFHVSEFTGIVMQSAFELLSLPKDQRPTAVFCYNDATALQFFLAAKRMGLKIPEDVSVIGFDDAPIGDFREILTTFEHPKEEVGKKAVEILLKMIDGEKPEKYVFKPKLIMRESVTYPKK
soluble on expression in E. coli: not soluble

###

assay: soluble on expression in E. coli; label from the status in PepcDB or PDB records
Outcome measure: soluble on expression in E. coli

Below are worked cases with known answers.
Record sequence: HMTMEQFLTSLDMIRSGCAPKFKLKTEDLDRLRVGDFNFPPSQDLMCYTKCVALMAGTVNKKGEFNAPKALAQLPHLVPPEMMEMSRKSVEACRDTHKQFKESCERVYQTAKCFSENADGQFMWP
soluble on expression in E. coli: soluble
//
Record sequence: VADFRYNVGLNLSAVKNKAVKFSGDGPIQTGGFNSDQIIRNEDGGLISRFYGYVADGIFQNWDEVYAHTNENGKLVQSNAQPGDIRFKDLNHDGVLDENDKTWIGNPYPDLMVGLNLGFSYKNIDFTANFYGTFGNDIFNKTKGLYSGVSGQNVWTGTLQKAWHGEGTSNDIPRLSYNDLNQNYTRVSSFFVEDGSYMRCKLLQVGYTLPKKWLNGTELRLSLSAQNPFTITSYSGMDPERPQIGKDGSVIETGIDGIAYPNPRTFLFGIDLKF
soluble on expression in E. coli: not soluble
//
Record sequence: MSLVTKEREQIYILDGDIPFLAQRARLEANFTMEAKAHIQLFHQYFFNLPPDNDYIKWTVGKAMYMADGTALKQKQALDENGFYSDIISSSAVCTIMCDSIQFDEHERKFTYYGTQLIKRRTKDLKRSMITTGYIESVPRTRNNPHGLLITNWRTLENKDLDYEGHHHHHH
soluble on expression in E. coli: soluble
//
Record sequence: MGALERFGVDFITVDQGNGQWDIQAIEINLRKGGTTHPFMTLKLLTNGRYELSTGLFYSQQGRPKYYIATDNLQKDRYRGLLPNDLMDIIAHHRLHFDSCTETGTVFHLMGCLSQFGKLGLTSIGDSPQQAEDIYNKVVKVLDEETRVNNKQFPLFSDYTFPNLEHHHHHH
soluble on expression in E. coli: not soluble
//
Record sequence: MGSDKIHHHHHHMLSRQGEYKSWEITEAVLPVASNQEEAKNILTDTNVATITKFYGRYQDFMEMPAPAEKVAEYLNAHALWFSRCAEPMKVQLLGENGYALVIGRFGAFGYEVEPKIGLELLPPEEGIYRIRTIPIPDYQSPGYDVDYRASLQLIENDACSSGEVTRVEWELDLIVDLHFPRFIQRLPKSIIQSTGDRLLNQIVRQVSRRLTRKVQQDFQKSLEIPFSGNSKQKR
soluble on expression in E. coli: not soluble

// recorded soluble on expression in E. coli for MIVIKPFILACLIVKKRKDILGKCLYSLESIGGEIIIVDNGSTDKKKEIAQKLTDKVYDFKWMNNFVEARNFAASKVSGTWIIAVDADECIDINNFVAAMEEIKSYKDKISIFLVEIMSFVGDNGEEITVNTMARLYKNDGSVYFLWWNV : not soluble

// recorded soluble on expression in E. coli for SMAPKPGLDFSPFDFAHFGFPSDNSGKERSFQAKPSPKLGRHVYSRPKVDIQKICIGNKNIFTVSDLKPDTQYYFDVFVVNINSNMSTAYVGTFARTKEEAKQKTVELKDGKITDVFVKRKGAKFLRFAPVSSHQKVTFFIHSCLDAVQIQVRRDGKLLLSQNVEGIQQFQLRGKPKAKYLVRLKGNKKGASMLKILATTRPTKQSFPSLPEDTRIKAFDKLRTCSSATVAWLGTQERNKFCIYKKEVDDNYNEDQKKREQNQCLGPDIRKKSEKVLCKYFHSQNLQKAVTTETIKGLQPGKSYLLDVYVIGHGGHSVKYQSKVVKTRKFC : soluble
